# target-or-test-system: human isoleucine zipper-CD40L (IZ-hCD40L) (human) (UniProt P29965)
# Sequence (P29965 113-261): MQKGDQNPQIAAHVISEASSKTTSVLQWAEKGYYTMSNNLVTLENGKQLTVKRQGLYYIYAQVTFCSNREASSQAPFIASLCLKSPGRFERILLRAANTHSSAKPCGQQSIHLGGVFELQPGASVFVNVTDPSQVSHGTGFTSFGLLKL
# experimental-details: cell-based or functional assay
reported-property: hIZCD40L-driven Human B Cell Proliferation EC50 (nM)

2h572-619-N297Qlong Fc (Fc fusion, not shown: a dimerising Fc or GST) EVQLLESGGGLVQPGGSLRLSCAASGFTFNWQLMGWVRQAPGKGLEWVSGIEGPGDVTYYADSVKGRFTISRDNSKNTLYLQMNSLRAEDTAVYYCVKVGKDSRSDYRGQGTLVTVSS ... 0.98

[I] 2h116-1320-Fc (Fc fusion, not shown: a dimerising Fc or GST) DIQMTQSPSSLSAYVGDRVTITCRASQPIGPDLLWYQQKPGKAPKLLIYQTSILRSGVPSRFSGSGSETDFTLTISNLQPEDFAKYYCQQYWAFPVTFGQGTKVVIKR
[II] 2h572-619-N297Qshort Fc (Fc fusion, not shown: a dimerising Fc or GST) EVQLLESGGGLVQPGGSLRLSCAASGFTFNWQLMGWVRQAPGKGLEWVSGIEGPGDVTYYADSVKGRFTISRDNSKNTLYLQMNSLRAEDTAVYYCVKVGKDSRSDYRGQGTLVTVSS
Sorting ascending by hIZCD40L-driven Human B Cell Proliferation EC50, which comes first: I or II ? // output: label of the selected item
II
(II: 0.9 nM, I: 13 nM)

[P] 2h503-1 Fc (Fc fusion, not shown: a dimerising Fc or GST) DIQMTQSPSSLSASVGDRVTITCRASHHIQRYLSWYQQKPGKAPKLLILWGSQLQSGVPSRFSGSGSGTDFTLTISSLQPEDFATYYCGQWWAPPQTFGQGTKVEIKR
[Q] 2h572-619-Ctshort Fc (Fc fusion, not shown: a dimerising Fc or GST) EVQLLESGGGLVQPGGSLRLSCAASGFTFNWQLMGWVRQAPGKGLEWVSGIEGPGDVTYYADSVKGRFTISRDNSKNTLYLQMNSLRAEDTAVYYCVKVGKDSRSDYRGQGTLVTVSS
Which record would sort first by descending hIZCD40L-driven Human B Cell Proliferation EC50, P or Q ? // output: label of the selected item
P
